The following compounds are shown together with reported melting point values.

compound: Cc1noc(-c2ccc(S(C)(=O)=O)cc2)c1-c1ccc(-c2cscn2)cc1
result: 119 °C
--
compound: CCCS(=O)c1ccc(-c2coc3ccc(-c4nnc(C)o4)cc23)cc1 (stereo unspecified)
result: 140 to 141 °C
--
compound: Oc1ccc(Br)cc1C12CC3CC(CC(C3)C1)C2
result: 140 to 141 °C

Item CN=CN(C)c1ccccc1C#N : provide melting point
60 to 63 °C

Item O=[N+]([O-])c1ccc(Cl)cc1Cc1ccccn1 : provide melting point
69 °C

Item CCN(CC)CCNC(=O)c1c(I)ccc2c(=O)c3ccccc3[nH]c12 : provide melting point
215 to 217 °C

Item O=c1c2c(cnn1-c1ccccc1)C(Cc1ccccc1)NCCS2 (stereo unspecified) : provide melting point
174 to 175 °C

Item CN(C)c1ccc(NC(=O)N(CC2CCCCC2)C[C@H]2CCC[C@H](CN(CC3CCCCC3)C(=O)Nc3ccc(N(C)C)cc3)C2)cc1 (relative stereo) : provide melting point
136 to 140 °C

Item CCCCCCCCCCC(=O)Nc1ccn(C2OC(CO)C(O)C2O)c(=O)n1 (stereo unspecified) : provide melting point
146 to 150 °C

Item N#Cc1cc(F)cc2c1OCCC21SC(=O)NC1=O (stereo unspecified) : provide melting point
230 to 232 °C

Item CC(C)(C)OC(=O)NC(Cc1cc2ccccc2s1)C(=O)O (stereo unspecified) : provide melting point
128 to 129 °C

Item CC1(C)CC(NCC(O)COc2ccc(C(=O)c3ccccc3)c(O)c2)CC(C)(C)N1OC1CCCCC1 (stereo unspecified) : provide melting point
118 to 121 °C

Item COc1ccc(S(=O)(=O)c2ccccn2)cc1 : provide melting point
112 °C

Item N#CCc1ccc([N+](=O)[O-])c2[nH]ncc12 : provide melting point
198 to 200 °C

Item CNC(=O)Cn1c(-c2ccc(C)s2)nc2cccnc21 : provide melting point
213 to 216 °C

Item O=C(NCCO)c1cccc(-c2ccc3c(c2)N(Cc2cccc(Cl)c2Cl)CC3)c1 : provide melting point
158 to 159 °C

Item CC(C)(COCc1cccc(Oc2ccccc2)c1)c1ccc(O)cc1 : provide melting point
69.2 to 70 °C

* * *

The following compounds are shown together with reported melting point values.

# count of solved cases: 4
compound: O=C(CCNC(=O)OCc1ccccc1)NC1OC(C(=O)O)CC1O (stereo unspecified)
melting point: 195 to 198 °C
//
compound: Fc1ccc(-n2c(OCCN3CCCC3)cc3ccc(Cl)cc32)cc1
melting point: 60 to 62 °C
//
compound: Cc1cc2c(cc1Cl)N(C(=O)CN1CCN(c3ccccc3)CC1)c1ccccc1N(C)S2(=O)=O
melting point: 194 to 196 °C
//
compound: COc1ccc(-c2cc(=O)n(CC3CC3)nc2-c2ccc(OC)c(F)c2)cc1F
melting point: 142 to 143 °C

Item CSC1=Nc2ccccc2C2=NCC(CBr)N12 (stereo unspecified) : provide melting point
162 to 163 °C

Item COCOC1CCC2(C)C(=CCC3C4CCC(=O)C4(C)CCC32)C1 (stereo unspecified) : provide melting point
130 to 132 °C

Item CCOC(=O)c1cn(Cc2ccccc2)nc1N(Cc1ccccc1)C(=O)Nc1ccccc1 : provide melting point
116 to 117 °C

Item CCCC[C@@H](C)C[C@@H](CC(=O)OC(C)(C)C)C(=O)N1C(=O)O[C@@H](c2ccccc2)[C@H]1C : provide melting point
84 to 86 °C

Item COc1cc(-c2ccc(NC(=O)OC(C)(C)C)cc2)c(C(C)=NOCc2ccc([N+](=O)[O-])cc2)cc1O : provide melting point
91 to 96.8 °C

Item COC(=O)CCCOc1ccccc1I : provide melting point
66.5 to 67 °C

Item COc1ccc2c(c1)C(=O)CC(C)(C)O2 : provide melting point
71 to 73 °C

Item CC(=O)N1CCC(c2nc(-c3ccncc3)c(-c3ccc(F)cc3)[nH]2)CC1 : provide melting point
235 to 236 °C

Item O=C1C=C(c2cc(F)c(Br)cc2F)CC1 : provide melting point
129 to 131 °C

Item CCOC(=O)N1N=C(c2ccc([N+](=O)[O-])cc2)c2cc(Cl)c(Cl)cc2CC1C (stereo unspecified) : provide melting point
106 to 108 °C

* * *

The following compounds are shown together with reported melting point values.

# count of solved cases: 5
compound: CCOC(=O)c1cc(NC(=O)c2ccccc2OC(C)=O)cc(Cl)c1O
propertyLabel: melting point
result: 163 to 166 °C
--
compound: COc1cc(CCC(=O)c2c(OC)cc(OC)c(CCC(C)C)c2OCC(=O)O)ccc1O
propertyLabel: melting point
result: 87 to 88 °C
--
compound: COc1ccc(-c2c(C)c3ccc(O)cc3oc2=O)c(O)c1
propertyLabel: melting point
result: 213 to 214 °C
--
compound: Cc1sc(-c2ccccc2)nc1COc1ccc(CO)cc1
propertyLabel: melting point
result: 94 to 95 °C
--
compound: Cc1cc2c(c(C=O)c1C)C(C)(C)CCC2(C)C
propertyLabel: melting point
result: 74 to 80 °C

Item CC(C)Cn1c(=O)n(C)c(=O)c2nc(-c3ccc(/C=C/C(=O)O)cc3)[nH]c21 : provide melting point
> 300 °C

Item CCOC(=O)C1C(=O)NC(=O)C12C(=O)N(Cc1ccc(Cl)c(Cl)c1)c1ccccc12 (stereo not given) : provide melting point
60 to 85 °C

Item CCOc1cc2c(C[C@H](C)N)c3n(c2cc1F)CCC3 : provide melting point
107 °C

Item Cc1c(F)cc(C(=O)NC(C)C(C)C)cc1-c1ccc(C(=O)NCC(C)(C)C)cc1C(=O)Nc1nccs1 (stereo not given) : provide melting point
234 to 239 °C

Item COc1ccc(-c2c(Cl)c(CNC(=O)c3cccnc3)nc3sc4c(c23)CCN(Cc2ccccc2)C4)cc1OC : provide melting point
124 to 125 °C

* * *

The following compounds are shown together with reported melting point values.

# count of solved cases: 10
compound: O=C(O)c1ccc(Cn2ncc3ccccc32)cc1
propertyLabel: melting point
result: 178 to 179 °C
//
compound: N#Cc1ccc2nc(C(=O)NCc3cccc(NC(=O)CCc4nc[nH]n4)c3)[nH]c(=O)c2c1
propertyLabel: melting point
result: 298 to 301 °C
//
compound: COc1ccc(C2=NN(c3cccc(C(=O)N4CCOCC4)c3)C(=O)C(C)(C)C2)cc1OC
propertyLabel: melting point
result: 108 to 109 °C
//
compound: O=C(CCC1CCC(=O)N1)Nc1ccncc1 (stereo not given)
propertyLabel: melting point
result: 187 to 188 °C
//
compound: CCOC(=O)C(O)=Cc1nccc(OCc2ccccc2)n1
propertyLabel: melting point
result: 124 to 126 °C
//
compound: COC(=O)CCCC#CCn1c(-c2ccccc2)c(-c2ccccc2)n(-c2ccccc2)c1=O
propertyLabel: melting point
result: 133 to 134 °C
//
compound: Cc1nn(-c2c(Cl)cc(C(F)(F)F)cc2Cl)nc1S
propertyLabel: melting point
result: 86 to 89 °C
//
compound: Cc1nscc1C(=O)NC1CC1
propertyLabel: melting point
result: 106 to 108 °C
//
compound: CC(=O)OC1CCC2(C)C(=CCC3C2CCC2(C)C(n4nccn4)=C(C=O)CC32)C1 (stereo not given)
propertyLabel: melting point
result: 145 to 148 °C
//
compound: Cc1ccc(S(=O)(=O)N2CCC(C#N)(c3ccc(Cl)cc3)CC2)cc1
propertyLabel: melting point
result: 202 to 206 °C

Item O=[N+]([O-])c1ccc(Br)cc1CS(=O)(=O)c1ccccc1 : provide melting point
143 to 144 °C

Item CC(C)N1CCN(Cc2ccc3c(c2)-c2[nH]nc(-c4ccsc4)c2C3)CC1 : provide melting point
182 to 185 °C

Item CCC1CC(=O)N(Cc2ccc(NC(=O)C(C)(C)C)cc2)N=C1c1ccc(OC)c(OC)c1 (stereo not given) : provide melting point
117 °C

Item CCS(=O)(=O)CCNC(=O)C1=C(C(=O)Nc2ccc(Cl)cc2F)CCCC1 : provide melting point
150 to 151 °C

Item O=C(O)Cc1c(Oc2ccc3c(c2)OCO3)cccc1Oc1ccc2c(c1)OCO2 : provide melting point
176 to 177 °C

* * *

The following molecules are shown together with reported melting point values.

# count of solved cases: 5
molecule: Cn1c(C(F)(F)F)cc(=O)n(-c2nc(Cl)c(C#N)cc2F)c1=O
result: 146 to 148 °C
//
molecule: CCCOc1nc(N)nc2nc[nH]c12
result: 198 to 200 °C
//
molecule: CC1OC(n2cc(F)c(NC(=O)c3ccc4c(c3)OCO4)nc2=O)C(O)C1O (stereo unspecified)
result: 124 to 125 °C
//
molecule: Cc1nc(N2CCN(CC3CC3)C2=O)sc1C(=O)NCc1ncco1
result: 172 to 174 °C
//
molecule: N#Cc1cc2[nH]c(=O)c(=O)n(C3CCCCC3)c2c2ccccc12
result: > 300 °C

Moving on to the next molecule.
Item CCC(=O)c1ccc2c(c1)OCC(=O)N2 : provide melting point
174 to 176 °C
